TESTED ON: PACAP-R2 (Homo sapiens)
Construct: expressed in transfected cells; host or cells: CHO cells
ASSAY REMARKS: Cyclic AMP SPA on CHO cells transfected with PACAP-R2
Type: cell-based
CONDITION NOTES: cAMP SPA, concentration at which 50% of maximum PACAP27 activity is achieved, NA = no detectable activities, read-out: R2 EC50
Procedure: CHO cells expressing the PACAP R3 were plated in 96-well plates (Costar) at 8×10^4 cell/well and grown at 37 C. for 24 hours in α MEM+nucleosides+glutamine (Giobco BRL), 10% FBS, 100 μg/ml Pen/Strep, 0.3 mg/ml glutamine, 1 mM HEPES, 0.5 mg/ml Geneticin (Gibco BRL). The media was removed and the plates were washed with PBS. […] Cyclic AMP in the cell extracts was quantitated using the cAMP SPA direct screening assay system (Amersham Pharmacia Biotech Inc, Piscataway, N.J.,). […]
pEC50: −log10 of the molar value. No end group written: not given here.
Label criterion not met if pEC50 falls below 8; label criterion met in every other case.

[[record]]
substance = "H-HSDAVFTDNYTRLRKQMAKKKYLNSIKNKR [Peptide R3P104]"
class_name = "criterion not met"

[[record]]
substance = "HSDAVFTDNYTRLRKQMAVKKYLNSIKKGGT [Peptide R3P9]"
class_name = "criterion not met"

[[record]]
substance = "HSDAVFTDNYTRLRKQMAVKKYLNSIKK-NH2 [Peptide R3P8]"
class_name = "criterion met"

[[record]]
substance = "HSDAVFTDNYTRLRKQMARKKYLNSIKNKR [Peptide R3P110]"
class_name = "criterion not met"

[[record]]
substance = "HSDAVFTDNYTRLRKQMAAKKYLNSIKNQR [Peptide R3P146]"
class_name = "criterion not met"

[[record]]
substance = "Ac-HSDAVFTENYTKLRKQLAAKKYLNDLKKGGT-NH2 [Peptide R3P1]"
class_name = "criterion not met"

[[record]]
substance = "HSDAVFTDNYTRLRKQVAAKKYLNSIKKKR [Peptide R3P78]"
class_name = "criterion not met"

[[record]]
substance = "ESDGIFTDSYSRYRKQMAVKKYLAAVL-NH2 [PAC1]"
class_name = "criterion not met"

[[record]]
substance = "HSDAVFTDNYTRLRKQMAVKKYLNSIKKKR [Peptide R3P57]"
class_name = "criterion not met"

[[record]]
substance = "HSDGIFTDSYSRYRKKMAVKKYLAAVL-NH2 [PAC16]"
class_name = "criterion met"

[[record]]
substance = "HSDAVFTDNYTRLRKQMAAKKYLNSIKKGGT [Peptide R3P26]"
class_name = "criterion not met"

[[record]]
substance = "HSDAVFTDNYTRLRKQMAIKKYLNSIKNKR [Peptide R3P103]"
class_name = "criterion met"

[[record]]
substance = "HSDGIFTDSYSRYRKQMAVKKKLAAVL-NH2 [PAC22]"
class_name = "criterion met"

[[record]]
substance = "HSDAVFTDNYTRLRKQMAAKKYLNSIVNKR [Peptide R3P131]"
class_name = "criterion not met"

[[record]]
substance = "HSDAVFTDNYTRLRKQLAAKKYLNDIKK-NH2 [Peptide R3P13]"
class_name = "criterion not met"

[[record]]
substance = "HSDAVFTDNYTRLRKQMAAKKYLNSIKNER [Peptide R3P137]"
class_name = "criterion not met"

[[record]]
substance = "HSDAVFTDNYTRLRKQVAVKKYLQSIKKK [Peptide R3P81]"
class_name = "criterion not met"

[[record]]
substance = "HSDAVFTDNYTRLRKQMAAKKYLNSIKNDR [Peptide R3P136]"
class_name = "criterion not met"

[[record]]
substance = "HSDGIFTDSYSRYRKQMAVKKYLKAVL-NH2 [PAC24]"
class_name = "criterion met"


====

TESTED ON: PACAP-R2 (Homo sapiens, UniProt P32241)
Construct: expressed in transfected cells; host or cells: CHO cells
Sequence (P32241 31-457, species assumed): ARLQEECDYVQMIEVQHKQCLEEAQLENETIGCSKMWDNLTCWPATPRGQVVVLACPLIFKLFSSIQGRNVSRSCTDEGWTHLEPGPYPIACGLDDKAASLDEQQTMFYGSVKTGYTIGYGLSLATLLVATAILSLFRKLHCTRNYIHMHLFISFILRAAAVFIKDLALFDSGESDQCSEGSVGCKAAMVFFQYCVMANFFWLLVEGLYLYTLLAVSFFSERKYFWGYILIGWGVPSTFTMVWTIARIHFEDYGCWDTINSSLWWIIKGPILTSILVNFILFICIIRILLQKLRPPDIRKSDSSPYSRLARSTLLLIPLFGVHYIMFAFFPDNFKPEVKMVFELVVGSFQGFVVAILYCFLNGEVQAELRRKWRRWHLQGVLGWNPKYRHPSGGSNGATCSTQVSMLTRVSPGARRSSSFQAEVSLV
ASSAY REMARKS: Cyclic AMP SPA on CHO cells transfected with PACAP-R2
Format: cell-based
CONDITION NOTES: cAMP SPA, concentration at which 50% of maximum PACAP27 activity is achieved, NA = no detectable activities, read-out: R2 EC50
No end group written: not given here.
Could you please mark Satisfied for values of EC50 below 60 nM and Not satisfied for values at or above it?

[[record]]
substance = "HSDAVFTDNYTRLRKQMAVKKYLNDLKKGGT [Peptide R3P14]"
class_name = "Satisfied"

[[record]]
substance = "HSDAVFTDNYTRLRKQMAAKKYLNSIKN [Peptide R3P49]"
class_name = "Satisfied"

[[record]]
substance = "HSDAVFTDNYTRLRKQMAGKKYLNSIKNKR [Peptide R3P101]"
class_name = "Not satisfied"

[[record]]
substance = "HSDAVFTDNYTRLRKQVAAKKYLQSIKNK [Peptide R3P86]"
class_name = "Not satisfied"

[[record]]
substance = "HSDAVFTDNYTRLRKQMAEKKYLNSIKNKR [Peptide R3P99]"
class_name = "Satisfied"

[[record]]
substance = "HSDGIFTDSYSRYRKQMAVKEYLAAVL-NH2 [PAC21]"
class_name = "Satisfied"

[[record]]
substance = "HSDAVFTENYTKLRKQLAAKKYLNDLLNGGT [Peptide R3P10]"
class_name = "Satisfied"

[[record]]
substance = "HSDAVFTDNYTRLRKQVAAKKYLQSILKKR [Peptide R3P84]"
class_name = "Satisfied"

[[record]]
substance = "HSDAVFTDNYTRLRKQMAAKKYLQSIKNKRY [Peptide R3P69]"
class_name = "Not satisfied"

[[record]]
substance = "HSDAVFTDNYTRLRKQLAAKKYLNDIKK [Peptide R3P33]"
class_name = "Not satisfied"

[[record]]
substance = "H-HSDGIFTDSYSRYRKQMAKKKYLAAVL-NH2 [PAC19]"
class_name = "Satisfied"

[[record]]
substance = "HSDAVFTDNYTRLRKQMAAKKYLNSIKNKA [Peptide R3P153]"
class_name = "Satisfied"

[[record]]
substance = "HSDAVFTDNYTRLRKQMAAKKYLNSIKNMR [Peptide R3P143]"
class_name = "Satisfied"

[[record]]
substance = "H-HSDGIFTESYSRYRKQMAVKKYLAALKKKRYKQRVKNK [Peptide R3P6]"
class_name = "Not satisfied"

[[record]]
substance = "HSDGIFTDKYSRYRKQMAVKKYLAAVL-NH2 [PAC9]"
class_name = "Satisfied"

[[record]]
substance = "HSDAVFTDNYTRLRKQMAAKKYLNSIKKKR [Peptide R3P53]"
class_name = "Not satisfied"

[[record]]
substance = "HSDAVFTDNYTRLRKQMAKKKYLNSIRNRI [rR3P191]"
class_name = "Not satisfied"

[[record]]
substance = "HSDAVFTDNYTRLRKQMAKKKYLNSIKNRI [rR3P176]"
class_name = "Not satisfied"

[[record]]
substance = "HSDAVFTDNYTRLRKQLAAKKYLNSIKKGGT [Peptide R3P22]"
class_name = "Satisfied"

[[record]]
substance = "HSDGIFTDSYSRYREQMAVKKYLAAVL-NH2 [PAC15]"
class_name = "Satisfied"

[[record]]
substance = "HSDAVFTDNYTRLRKQMAAKKYLNSIKK [Peptide R3P51]"
class_name = "Satisfied"

[[record]]
substance = "HSDAVFTDNYTRLRKQLAAKKYLNSIKNGGT [Peptide R3P30]"
class_name = "Satisfied"

[[record]]
substance = "HSDAVFTDNYTRLRKQMAFKKYLNSIKNKR [Peptide R3P100]"
class_name = "Satisfied"

[[record]]
substance = "HSDGIFTDSYSRYRKQMAVKKYLAAKL-NH2 [PAC26]"
class_name = "Satisfied"

[[record]]
substance = "H-HSDAVFTDNYTRLRKQMAAKHYLNSIKNKRY [Peptide R3P74]"
class_name = "Not satisfied"

[[record]]
substance = "HSDAVFTDNYTRLRKQVAVKKYLQSILKKRY [Peptide R3P87]"
class_name = "Satisfied"

[[record]]
substance = "HSDAVFTDNYTRLRKQMAAKKYLNSIANKR [Peptide R3P116]"
class_name = "Satisfied"

[[record]]
substance = "HSDGIFTDSYSRYRKQKAVKKYLAAVL-NH2 [PAC17]"
class_name = "Satisfied"

[[record]]
substance = "HSDGIFTDSYSRYRKQMAVEKYLAAVL-NH2 [PAC20]"
class_name = "Satisfied"

[[record]]
substance = "HSDAVFTDNYTRLRKQMAKKKYLNSIQNRI [rR3P186]"
class_name = "Not satisfied"

[[record]]
substance = "HSDAVFTDNYTRLRKQMAAKKYLNSIKNNR [Peptide R3P144]"
class_name = "Not satisfied"

[[record]]
substance = "HSDAVFTDNYTRLRKQMAAKKYLNSIKNKP [Peptide R3P165]"
class_name = "Not satisfied"

[[record]]
substance = "HSDAVFTDNYTRLRKQMAAKKYLNSIKNSR [Peptide R3P148]"
class_name = "Satisfied"

[[record]]
substance = "HSDAVFTDNYTRLRKQLAAKKYLNDIKKKRY [Peptide R3P36]"
class_name = "Not satisfied"

[[record]]
substance = "HSDAVFTDNYTRLRKQMAAKKYLNSIKNHR [Peptide R3P140]"
class_name = "Satisfied"

[[record]]
substance = "HSDAVFTDNYTRLRKQMAAKKYLNSIKNIR [Peptide R3P141]"
class_name = "Satisfied"

[[record]]
substance = "HSDAVFTDNYTRLRKQMAAKKYLNSILN [Peptide R3P47]"
class_name = "Satisfied"

[[record]]
substance = "HSDAVFTDNYTRLRKQLAAKKYLNDIKKGGT [Peptide R3P12]"
class_name = "Not satisfied"

[[record]]
substance = "HSDAVFTDNYTRLRKQVAAKKYLQSIKNKRY [Peptide R3P66]"
class_name = "Not satisfied"

[[record]]
substance = "HSDAVFTDNYTRLRKQMAAKKYLNSIKNRI [rR3P174]"
class_name = "Satisfied"

